- target_under_test: Na^+/H^+ exchanger of rabbit erythrocytes (Oryctolagus cuniculus, UniProt P23791)
- Construct: determine the Na^+ influx into the erythrocytes via Na^+/H^+ exchange by flame photometry; endogenous in cells
- Sequence (P23791 whole entry): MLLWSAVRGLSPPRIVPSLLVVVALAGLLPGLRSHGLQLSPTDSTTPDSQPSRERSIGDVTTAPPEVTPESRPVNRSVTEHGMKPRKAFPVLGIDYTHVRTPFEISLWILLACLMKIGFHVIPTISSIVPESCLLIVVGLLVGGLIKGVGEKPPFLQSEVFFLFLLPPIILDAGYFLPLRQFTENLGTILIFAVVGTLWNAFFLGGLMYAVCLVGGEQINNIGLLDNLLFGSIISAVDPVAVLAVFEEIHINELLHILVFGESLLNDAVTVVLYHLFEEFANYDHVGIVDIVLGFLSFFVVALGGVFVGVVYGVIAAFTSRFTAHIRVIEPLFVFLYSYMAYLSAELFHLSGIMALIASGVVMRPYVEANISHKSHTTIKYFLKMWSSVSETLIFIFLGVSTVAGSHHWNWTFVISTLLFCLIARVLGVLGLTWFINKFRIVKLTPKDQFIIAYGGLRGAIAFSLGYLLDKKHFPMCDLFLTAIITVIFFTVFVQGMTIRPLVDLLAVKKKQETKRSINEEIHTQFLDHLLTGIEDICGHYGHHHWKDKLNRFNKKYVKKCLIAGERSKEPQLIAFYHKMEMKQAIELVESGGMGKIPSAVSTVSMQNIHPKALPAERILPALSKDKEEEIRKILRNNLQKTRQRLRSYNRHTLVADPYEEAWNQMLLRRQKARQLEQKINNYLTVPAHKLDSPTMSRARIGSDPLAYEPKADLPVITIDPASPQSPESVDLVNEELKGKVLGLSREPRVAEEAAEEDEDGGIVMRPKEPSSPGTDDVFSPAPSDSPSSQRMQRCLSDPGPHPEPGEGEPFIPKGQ
- method_notes: Inhibition of the Na+/H+ exchanger of rabbit erythrocytes (amiloride-sensitive sodium influx, flame photometry)
- condition_parameters: pH 7.4, 37° C., hyperosmolar salt-sucrose medium
Where a name gives a salt, the structure may show the parent alone.
property_label: IC50 (nM)

> print(dat)
                                   compound  unit.text  observed.result
1  COc1ccc2ccccc2c1C(=O)NC(=N)N [Example 8, Hydrochloride]         nM              500
2  N=C(N)NC(=O)c1cccc2ccccc12 [Example 6, 1-Naphthoylguanidine Hydrochloride]         nM            10000
3  CC(C)Oc1ccc2ccccc2c1C(=O)NC(=N)N [Example 18, Hydrochloride]         nM             2000
4  CCCCOc1ccc2ccccc2c1C(=O)NC(=N)N [Example 14, Hydrochloride]         nM             1000
